Provenance of the data: paper PMC6050476

Test: Plasma pharmacokinetics of isorhapontigenin in Sprague-Dawley rats (LC–MS/MS)
Assay type: in vivo
Settings: male, Sprague-Dawley, plasma, 200 umol/kg; Group 2, single oral 200 μmol/kg, suspension, rat
readout.type: Tmax

-- ask Which Tmax value belongs to COc1cc(/C=C/c2cc(O)cc(O)c2)ccc1O [isorhapontigenin] ?
-- reply 15 to 45 min

----------
Assay: Plasma pharmacokinetics of isorhapontigenin in Sprague-Dawley rats (LC–MS/MS)
Type: in vivo
Settings: male, Sprague-Dawley, plasma, 90 umol/kg; Group 1, single intravenous 90 μmol/kg, HP–β–CD, rat
Procedure: This in vivo study was conducted with strict adherence to the “Guidelines on the Care and Use of Animals for Scientific Purposes” (Singapore). The pharmacokinetic study design and animal handling procedures were reviewed and approved by the Institutional Animal Care and Use Committee of the National University of Singapore (NUS; R15-1273). All animal experiments were carried out in a specific pathogen-free animal facility (temperature: 22 ± 1°C; humidity: 60–70%) in Comparative Medicine, NUS. […]
readout.type: clearance (mL/min/kg)
One number for each entry, in mL/min/kg.

-- ask Name the reported clearance value associated with the compound "COc1cc(/C=C/c2cc(O)cc(O)c2)ccc1O"
-- reply 76.8

----------
Test: Plasma pharmacokinetics of isorhapontigenin in Sprague-Dawley rats (LC–MS/MS)
Format: in vivo
Conditions: male, Sprague-Dawley, rat, plasma, po, 100 umol/kg, Group 3, oral 100 μmol/kg after 1-week vehicle pre-treatment, suspension
readout.type: bioavailability (%)
Answers are plain numbers, in %.

-- ask Fill in: bioavailability of COc1cc(/C=C/c2cc(O)cc(O)c2)ccc1O [isorhapontigenin] is ___
-- reply 17.9

----------
Assay: Plasma pharmacokinetics of isorhapontigenin in Sprague-Dawley rats (LC–MS/MS)
Type: in vivo
Conditions: male, Sprague-Dawley, rat, plasma, po, 100 umol/kg, Group 4, oral 100 μmol/kg after 1-week daily oral ISO 100 μmol/kg pre-treatment, suspension
readout.type: bioavailability
# number then unit; no other words

-- ask Form field: reported bioavailability of "COc1cc(/C=C/c2cc(O)cc(O)c2)ccc1O"
-- reply 20.8%

----------
Experiment: Plasma pharmacokinetics of isorhapontigenin in Sprague-Dawley rats (LC–MS/MS)
Type: in vivo
Details: male, Sprague-Dawley, plasma, 100 umol/kg; Group 3, oral 100 μmol/kg after 1-week vehicle pre-treatment, suspension, rat
readout.type: Tmax (min)
One number for each entry, in min.

-- ask Can you look up the measured Tmax of COc1cc(/C=C/c2cc(O)cc(O)c2)ccc1O [isorhapontigenin] for me?
-- reply 15
